B1: library; numbered along this chain (parent)
chain: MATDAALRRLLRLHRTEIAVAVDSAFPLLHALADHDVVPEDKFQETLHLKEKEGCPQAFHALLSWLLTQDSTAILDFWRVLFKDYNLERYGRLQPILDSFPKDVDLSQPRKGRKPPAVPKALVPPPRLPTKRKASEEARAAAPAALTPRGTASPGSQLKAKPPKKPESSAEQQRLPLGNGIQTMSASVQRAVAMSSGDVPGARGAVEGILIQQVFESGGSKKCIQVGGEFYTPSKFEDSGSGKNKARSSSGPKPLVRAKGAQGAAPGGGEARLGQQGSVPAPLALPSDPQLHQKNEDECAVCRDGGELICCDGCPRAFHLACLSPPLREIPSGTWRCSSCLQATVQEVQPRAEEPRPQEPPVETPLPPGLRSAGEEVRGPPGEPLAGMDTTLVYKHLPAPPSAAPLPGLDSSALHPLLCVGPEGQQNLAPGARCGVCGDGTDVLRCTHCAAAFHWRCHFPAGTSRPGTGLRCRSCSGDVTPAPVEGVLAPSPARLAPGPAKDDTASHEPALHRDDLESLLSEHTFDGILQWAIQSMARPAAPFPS

Variants of: B1
METHOD_SUMMARY: AIRE transcriptional activation functional score (insulin promoter-GFP; nonsense median 0, synonymous median 1) (normalised score); higher = higher AIRE activity (more reporter activation)
STATED_CONDITIONS: with insulin promoter-GFP reporter in HEK293
Decide by AIRE transcriptional activation functional score: equal to or exceeding 0.8 means yes, less means no.

1. G277Y : no
2. R110G : yes
3. P499Q : yes
4. L341I : yes
5. E376I : yes
6. E423I : yes
7. T68F : no
8. F230L : no
9. G431I : yes
10. P101T : no
11. Q57G : no
12. A404H : yes
13. L285S : yes
14. E307S : yes
15. L87E : yes
16. S153F : yes
17. P109H : yes
18. S249N : no
19. Q189H : yes
20. V206T : no
21. G227R : no
22. Q213C : no
23. A261K : yes
24. Q276V : yes
25. L93E : no
26. H60A : no
27. R473W : yes
28. V37I : no
29. L175K : no
30. K114D : no
31. A532F : no
32. C419N : no
33. E237I : yes
34. K259S : yes
35. A73I : yes
36. R328H : no
37. P233C : yes
38. G462R : yes
39. D304A : yes
40. R174E : no
41. R92W : no
42. A343F : yes
43. F215Y : no
44. L285K : no
